Measured values drawn from ChEMBL document CHEMBL4038340 for this set.

Target Of Assay: Procathepsin L (Homo sapiens)
Assay Explanation: Inhibition of human cathepsin L assessed as first order rate constant using Cbz-Phe-Arg-AMC as substrate after 10 mins by fluorescence assay
Sequence (P07711 114-333 limits assumed): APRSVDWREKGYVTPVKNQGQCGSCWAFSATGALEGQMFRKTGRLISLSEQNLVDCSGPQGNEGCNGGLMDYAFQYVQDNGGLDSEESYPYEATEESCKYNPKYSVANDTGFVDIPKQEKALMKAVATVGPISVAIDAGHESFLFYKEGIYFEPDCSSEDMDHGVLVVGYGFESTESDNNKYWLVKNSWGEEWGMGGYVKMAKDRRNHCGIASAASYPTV
Rule: Kinact below 0.003 min⁻¹ gives Criterion met, anything at or above gives Criterion not met.

1) COC(=O)/C=C/[C@H](CCc1ccccc1)NC(=O)[C@H](Cc1ccccc1)NC(=O)OCc1ccc([N+](=O)[O-])cc1    Criterion met
2) CC(=O)/C=C/[C@H](CCc1ccccc1)NC(=O)[C@H](CC(C)C)NC(=O)OCc1ccc([N+](=O)[O-])cc1    Criterion met
3) O=C(N[C@@H](Cc1ccccc1)C(=O)N[C@H](/C=C/S(=O)(=O)c1ccccc1)CCc1ccccc1)OCc1ccccc1    Criterion met
4) CC(=O)/C=C/[C@H](CCc1ccccc1)NC(=O)[C@H](Cc1ccccc1)NC(=O)OCc1ccc([N+](=O)[O-])cc1    Criterion met
5) CC(C)C[C@H](NC(=O)[C@H]1O[C@@H]1C(=O)O)C(=O)NCCCCN=C(N)N    Criterion not met
6) COC(=O)/C=C/[C@H](CCc1ccccc1)NC(=O)[C@H](Cc1ccccc1)NC(=O)OCc1ccccc1    Criterion not met
7) CC(C)C[C@H](NC(=O)OCc1ccccc1)C(=O)N[C@H](/C=C/C#N)CCc1ccccc1    Criterion met

* * *

Assay Explanation: Selectivity index, ratio of CC50 for human HeLa cells to EC50 for Trypanosoma brucei brucei 449 for 48 hrs
Type: toxicity, cell-based
Condition Details: read-out: Ratio CC50/EC50
Property Name: selectivity ratio at 48 h

1. CC(C)C[C@H](NC(=O)OCc1ccccc1)C(=O)N[C@H](/C=C/S(=O)(=O)c1ccccc1)CCc1ccccc1    4.6
2. CC(=O)/C=C/[C@H](CCc1ccccc1)NC(=O)[C@H](Cc1ccccc1)NC(=O)OCc1ccccc1    2.6
3. CC(=O)/C=C/[C@H](CCc1ccccc1)NC(=O)[C@H](CC(C)C)NC(=O)OCc1ccccc1    3
4. CC(=O)/C=C/[C@H](CCc1ccccc1)NC(=O)[C@H](CC(C)C)NC(=O)OCc1ccc([N+](=O)[O-])cc1    3.3

* * *

Target Of Assay: Procathepsin L (Homo sapiens, UniProt P07711)
Property Name: Ki

1. COC(=O)/C=C/[C@H](CCc1ccccc1)NC(=O)[C@H](Cc1ccccc1)NC(=O)OCc1ccccc1    27 nM
2. CC(C)C[C@H](NC(=O)OCc1ccccc1)C(=O)N[C@H](/C=C/C#N)CCc1ccccc1    330 nM
3. CC(C)C[C@H](NC(=O)OCc1ccccc1)C(=O)N[C@H](/C=C/S(=O)(=O)c1ccccc1)CCc1ccccc1    0.61 nM
4. CC(C)C[C@H](NC(=O)OCc1ccc([N+](=O)[O-])cc1)C(=O)N[C@H](/C=C/S(=O)(=O)c1ccccc1)CCc1ccccc1    250 nM
5. CC(=O)/C=C/[C@H](CCc1ccccc1)NC(=O)[C@H](Cc1ccccc1)NC(=O)OCc1ccccc1    0.4 nM
6. CC(=O)/C=C/[C@H](CCc1ccccc1)NC(=O)[C@H](Cc1ccccc1)NC(=O)OCc1ccc([N+](=O)[O-])cc1    2.2 nM
7. O=C(N[C@@H](Cc1ccccc1)C(=O)N[C@H](/C=C/S(=O)(=O)c1ccccc1)CCc1ccccc1)OCc1ccc([N+](=O)[O-])cc1    45 nM
